Data provenance is patent US12660819B2.

// values below are reported Post-emergence Test ECHCG, percentage damage to the plant (five-point scale)
- Test system: Echinochloa crus-galli (ECHCG)
- ASSAY OVERVIEW: Post-emergence Test (glasshouse, percentage damage to the plant)
- Assay type: in vivo
- TEST CONDITIONS: post-emergence spray, 1000 g/ha unless otherwise stated, evaluated after 13 days
READOUT KIND: Post-emergence Test ECHCG, percentage damage to the plant (five-point scale)

[
  {
    "QUERY SMILES": "CCOc1cccc(-c2c(C)n(CC)c(-c3ccc(Cl)c(Cl)c3)c(C(=O)O)c2=O)c1",
    "VALUE MEASURED": "1 (1=0-20%)"
  },
  {
    "QUERY SMILES": "CCn1c(C)c(-c2ncco2)c(=O)c(C(=O)OC)c1-c1ccc(Cl)c(Cl)c1",
    "VALUE MEASURED": "1 (1=0-20%)"
  },
  {
    "QUERY SMILES": "CCn1c(C)c(-c2cccc(C(C)=O)c2)c(=O)c(C(=O)O)c1-c1ccc(Cl)c(Cl)c1",
    "VALUE MEASURED": "3 (3=41-60%)"
  },
  {
    "QUERY SMILES": "CCn1c(C)c(-c2ccc(Cl)cc2)c(=O)c(C(=O)O)c1-c1ccc(Cl)cn1",
    "VALUE MEASURED": 0
  }
]

* * *

- System: Setaria faberi (SETFA)
- ASSAY OVERVIEW: Post-emergence Test (glasshouse, percentage damage to the plant)
- Type: in vivo
- TEST CONDITIONS: post-emergence spray, 1000 g/ha unless otherwise stated, evaluated after 13 days
READOUT KIND: Post-emergence Test SETFA, percentage damage to the plant (five-point scale)

[
  {
    "QUERY SMILES": "Cc1c(-c2ccc(Cl)cc2)c(=O)c(C(=O)O)c(-c2ccc(Cl)c(Cl)c2)n1C",
    "VALUE MEASURED": "5 (5=81-100%)"
  },
  {
    "QUERY SMILES": "CCn1c(C)c(-c2ccc(C#N)cc2)c(=O)c(C(=O)O)c1-c1ccnc(Cl)c1",
    "VALUE MEASURED": "2 (2=21-40%)"
  },
  {
    "QUERY SMILES": "CCOC(=O)c1c(-c2ccc(F)c(F)c2)n(CC)c(C)c(-c2ccc(Cl)cc2)c1=O",
    "VALUE MEASURED": 0
  },
  {
    "QUERY SMILES": "CCn1c(C)c(-c2ccc(OC)c(C(F)(F)F)c2)c(=O)c(C(=O)O)c1-c1ccc(Cl)c(Cl)c1",
    "VALUE MEASURED": "3 (3=41-60%)"
  }
]

* * *

- Test system: Zea mays (ZEAMX)
- ASSAY OVERVIEW: Pre-emergence Test (glasshouse, percentage damage to the plant)
- Assay type: in vivo
- TEST CONDITIONS: 1000 g/ha unless otherwise stated, five-point scale
Each entry below carries its reported percentage damage to the plant, ZEAMX.

[
  {
    "QUERY SMILES": "CCn1c(C)c(-c2ccc(F)cc2OC)c(=O)c(C(=O)O)c1-c1ccc(Cl)cc1",
    "percentage damage to the plant, ZEAMX": 0
  },
  {
    "QUERY SMILES": "CCn1c(C)c(-c2cncc(OC)c2)c(=O)c(C(=O)O)c1-c1ccc(Cl)c(Cl)c1",
    "percentage damage to the plant, ZEAMX": "1 (1=0-20%)"
  },
  {
    "QUERY SMILES": "CCn1c(C)c(-c2ccc(Cl)cc2)c(=O)c(C(=O)O)c1-c1ccnc(Cl)c1",
    "percentage damage to the plant, ZEAMX": "3 (3=41-60%)"
  },
  {
    "QUERY SMILES": "CCn1c(C)c(-c2cc(C)c(Cl)c(C)c2)c(=O)c(C(=O)O)c1-c1ccc(Cl)cc1",
    "percentage damage to the plant, ZEAMX": 0
  },
  {
    "QUERY SMILES": "CCn1c(C)c(-c2cc(C)cc(C#N)c2)c(=O)c(C(=O)O)c1-c1ccc(Cl)c(Cl)c1",
    "percentage damage to the plant, ZEAMX": "1 (1=0-20%)"
  },
  {
    "QUERY SMILES": "CCn1c(C)c(-c2ccc(Cl)c(C#N)c2)c(=O)c(C(=O)O)c1-c1ccc(Cl)c(Cl)c1",
    "percentage damage to the plant, ZEAMX": "2 (2=21-40%)"
  },
  {
    "QUERY SMILES": "CCn1c(C)c(-c2cccc(Cl)c2Cl)c(=O)c(C(=O)O)c1-c1ccc(Cl)cc1",
    "percentage damage to the plant, ZEAMX": 0
  },
  {
    "QUERY SMILES": "CCn1c(C)c(-c2cc(F)ccc2Cl)c(=O)c(C(=O)O)c1-c1ccc(Cl)cc1",
    "percentage damage to the plant, ZEAMX": "1 (1=0-20%)"
  }
]
